- Test system: HBsAg
- ASSAY PROTOCOL: HBsAg assay: inhibition of HBsAg in HepG2.2.15 cells (chemiluminescence immunoassay of supernatant)
- Assay type: cell-based, hepatitis B virus
- SETUP CONDITIONS: read-out: sAg EC50; HepG2.2.15 cells; HBsAg in supernatant at day 6 after exposure to compound; 0.5% DMSO
Consider the following compounds and their measured pEC50 readings.
To interpret pEC50, take it as minus log10 of a concentration measured in moles per litre.

Examples from the recorded data:
INSERT INTO assay_data (compound, target, reported_value) VALUES
  ('COc1cc(C2CC2c2cnc(-c3ncccn3)nc2)cc(C)c1Cl (single isomer, unassigned) [Example 57]', 'HBsAg', 7.20),
  ('COCCCn1ncc2c(C3CC3c3cnc(-c4ncccn4)nc3)cc(F)c(F)c21 (single isomer, unassigned) [Example 265]', 'HBsAg', 7.21),
  ('COc1cc(C2CC2c2cnc(-c3ncccn3)nc2)cc(N2CCCC2)c1F (single isomer, unassigned) [Example 101]', 'HBsAg', 6.10);

Problem: Quick one: pEC50 for COCCCOc1cc(C2CC2c2cnc(-c3ncccn3)nc2)cc(F)c1F (single isomer, unassigned) [Example 131] ?
Solution: 7.82

Problem: Moving on to the next compound: Fc1cc(C2CC2c2cnc(-c3ncccn3)nc2)cc(N2CCC3(COC3)C2)c1F (single isomer, unassigned) [Example 222]
Solution: 6.72

Problem: Continue with COc1cc(C2CC2c2cnc(-c3ncccn3)nc2)cc(F)c1F (single isomer, unassigned) [Example 85]
Solution: 7.54

Problem: Another compound: Fc1ccc(C2CC2c2cnc(-c3ncccn3)nc2)cc1OCC(F)F (single isomer, unassigned) [Example 28]
Solution: 7.25

* * *

- Tested on: HBsAg
- ASSAY PROTOCOL: HBsAg assay: inhibition of HBsAg in HepG2.2.15 cells (chemiluminescence immunoassay of supernatant)
- Type: cell-based, hepatitis B virus
- SETUP CONDITIONS: read-out: sAg EC50; HepG2.2.15 cells; HBsAg in supernatant at day 6 after exposure to compound; 0.5% DMSO
- Description: Inhibition of HBsAg was determined in HepG2.2.15 cells. Cells were maintained in culture medium containing 10% fetal calf serum, […], Glutamine, penicillin/streptomycin. Cells were seeded in 96-well collagen-coated plate at a density of 30,000 cells/well. Serially diluted compounds were added to cells next day at the final DMSO concentration of 0.5%. Cells were incubated with compounds for 2-3 days, after which medium was removed. […]
Measured EC50 of individual entries
Give the quantity in nM, number only.

Sample records with EC50:
INSERT INTO results (compound, assay_metric, reported_value) VALUES
  ('COc1cc(C2CC2c2cnc(-c3ncccn3)nc2C(C)C)ccc1F (single isomer, unassigned) [Example 74]', 'EC50', 10000),
  ('COc1ccc(C2CC2c2cnc(-c3ncccn3)nc2)c(F)c1 (single isomer, unassigned) [Example 2]', 'EC50', 230),
  ('Fc1ccc(C2CC2c2cnc(-c3ncccn3)nc2)cc1OC(F)(F)F (single isomer, unassigned) [Example 40]', 'EC50', 110);

Now for a further compound.
Problem: Give the reported EC50 for Fc1c(Cl)cc(C2CC2c2cnc(-c3ncccn3)nc2)cc1N1CCCC1 (single isomer, unassigned) [Example 109] (system: HBsAg).
Solution: 25

* * *

- System: HBsAg
- ASSAY PROTOCOL: HBsAg assay: inhibition of HBsAg in HepG2.2.15 cells (chemiluminescence immunoassay of supernatant)
- Type: cell-based, hepatitis B virus
- SETUP CONDITIONS: read-out: sAg EC50; HepG2.2.15 cells; HBsAg in supernatant at day 6 after exposure to compound; 0.5% DMSO
Items are presented alongside their recorded EC50.
Provide the reading as a plain figure in nM.

INSERT INTO assay_data (compound, display_unit, reported_value) VALUES
  ('COc1cc(C2CC2c2cnc(-c3ncccn3)nc2-c2ccccc2)ccc1F (single isomer, unassigned) [Example 143]', 'nM', 120),
  ('COc1cc(C2CC2c2cnc(-c3ncccn3)nc2)cc(Cl)c1F (single isomer, unassigned) [Example 148]', 'nM', 1000),
  ('COc1cc(C2CC2c2ccc(-c3ncccn3)nn2)ccc1F (single isomer, unassigned) [Example 191]', 'nM', 2000);

Now for another entry.
Problem: Please report the recorded EC50 for Fc1cc(C2CC2c2cnc(-c3ncccn3)nc2)cc(N2CC3(CCOCC3)C2)c1F (single isomer, unassigned) [Example 136] .
Solution: 920

* * *

- System: HBsAg
- ASSAY PROTOCOL: HBsAg assay: inhibition of HBsAg in HepG2.2.15 cells (chemiluminescence immunoassay of supernatant)
- Assay type: cell-based, hepatitis B virus
- SETUP CONDITIONS: read-out: sAg EC50; HepG2.2.15 cells; HBsAg in supernatant at day 6 after exposure to compound; 0.5% DMSO
EC50 by entry:
Give the value in µM but do not write µM after it.

INSERT INTO measurements (compound, display_unit, reported_value) VALUES
  ('CS(=O)(=O)N1CCN(c2cc(C3CC3c3cnc(-c4ncccn4)nc3)ccc2F)CC1 (single isomer, unassigned) [Example 41]', 'µM', 4),
  ('COc1cc(F)cc(C2CC2c2cnc(-c3ncccn3)nc2)c1 (single isomer, unassigned) [Example 112]', 'µM', 0.5),
  ('CN(C)C(=O)c1cc(C2CC2c2cnc(-c3ncccn3)nc2)ccc1Cl (single isomer, unassigned) [Example 204]', 'µM', 4);

Next compound, please.
Problem: What measured EC50 goes with Oc1cnn(-c2cc(C3CC3c3cnc(-c4ncccn4)nc3)cc(F)c2F)c1 (single isomer, unassigned) [Example 259] ?
Solution: 2

* * *

Each item that follows carries a reported pEC50.
- Tested on: HBsAg
- ASSAY PROTOCOL: HBsAg assay: inhibition of HBsAg in HepG2.2.15 cells (chemiluminescence immunoassay of supernatant)
- Assay type: cell-based, hepatitis B virus
- SETUP CONDITIONS: read-out: sAg EC50; HepG2.2.15 cells; HBsAg in supernatant at day 6 after exposure to compound; 0.5% DMSO
// field semantics: pEC50 = negative decimal log of concentration (mol/L)

Example cases with answers are listed next.
INSERT INTO measurements (compound, reported_value) VALUES
  ('CO[C@H]1CCN(c2cc(C3CC3c3cnc(-c4ncccn4)nc3)cc(Cl)c2F)C1 (single isomer, unassigned) [Example 116]', 7.05),
  ('Fc1cc(C2CC2c2cnc(-c3ncccn3)nc2)cc(O[C@H]2CCOC2)c1F (single isomer, unassigned) [Example 249]', 6.10);

Turning to the following compound.
Problem: Requested read-out: pEC50. Entry: Fc1ccc(C2CC2c2cnc(-c3ncccn3)nc2)cc1N1CCC(F)(F)C1 (single isomer, unassigned) [Example 43]
Solution: 6.60

* * *

- Tested on: HBsAg
- ASSAY PROTOCOL: HBsAg assay: inhibition of HBsAg in HepG2.2.15 cells (chemiluminescence immunoassay of supernatant)
- Assay type: cell-based, hepatitis B virus
- SETUP CONDITIONS: read-out: sAg EC50; HepG2.2.15 cells; HBsAg in supernatant at day 6 after exposure to compound; 0.5% DMSO
pEC50: −log10 of the molar value.
Criterion: pEC50 meeting or surpassing 6. Met: Satisfied. Not met: Not satisfied.

Please review the following examples before continuing.
INSERT INTO assay_data (compound, discrete_label) VALUES
  ('Fc1cn(-c2cc(C3CC3c3cnc(-c4ncccn4)nc3)cc(F)c2F)cc1F (single isomer, unassigned) [Example 257]', 'Satisfied'),
  ('Fc1cc(C2CC2c2cnc(-c3ncccn3)nc2)cc(-n2ccnc2)c1F (single isomer, unassigned) [Example 182]', 'Satisfied'),
  ('COc1cc(F)ccc1C1CC1c1cnc(-c2ncccn2)nc1 (single isomer, unassigned) [Example 8]', 'Satisfied');

Problem: For this compound, is measured pEC50 6 or higher? COc1cc(C2CC2c2cnc(-c3ncccn3)nc2N2CCCCC2)ccc1F (single isomer, unassigned) [Example 144]
Solution: Not satisfied

Problem: Queued: COc1ccc(C2CC2c2cnc(-c3ncccn3)nc2)cc1OC (single isomer, unassigned) [Example 32]
Solution: Satisfied

Problem: Check Fc1cc(C2CC2c2cnc(-c3ncccn3)nc2)cc(N2CC3(CCOCC3)C2)c1F (single isomer, unassigned) [Example 137] too.
Solution: Satisfied

* * *

- System: HBsAg
- ASSAY PROTOCOL: HBsAg assay: inhibition of HBsAg in HepG2.2.15 cells (chemiluminescence immunoassay of supernatant)
- Assay type: cell-based, hepatitis B virus
- SETUP CONDITIONS: read-out: sAg EC50; HepG2.2.15 cells; HBsAg in supernatant at day 6 after exposure to compound; 0.5% DMSO
- Method: Inhibition of HBsAg was determined in HepG2.2.15 cells. Cells were maintained in culture medium containing 10% fetal calf serum, […], Glutamine, penicillin/streptomycin. Cells were seeded in 96-well collagen-coated plate at a density of 30,000 cells/well. Serially diluted compounds were added to cells next day at the final DMSO concentration of 0.5%. Cells were incubated with compounds for 2-3 days, after which medium was removed. […]
ASSAY METRIC: log10 of EC50 (log10 of the value in nM)
A difference of one corresponds to tenfold EC50; all values are log10 with EC50 in nM.

INSERT INTO measurements (molecule, assay_metric, reported_value) VALUES
  ('COc1cnn(-c2cc(C3CC3c3cnc(-c4ncccn4)nc3)cc(F)c2F)c1 (single isomer, unassigned) [Example 252]', 'log10 of EC50', 1.15),
  ('COc1c(Cl)ccc(C2CC2c2cnc(-c3ncccn3)nc2)c1OC (single isomer, unassigned) [Example 114]', 'log10 of EC50', 3.48),
  ('Fc1ccc(C2CC2c2cnc(-c3ncccn3)nc2)cc1OCC1CC1 (single isomer, unassigned) [Example 25]', 'log10 of EC50', 2.43),
  ('COC1CN(c2cc([C@@H]3C[C@H]3c3cnc(-c4ncccn4)nc3)cc(F)c2F)C1 (single isomer, unassigned) [Example 123]', 'log10 of EC50', 1.08);

Problem: Which log10 of EC50 is listed for CN1CC[C@@H](Nc2cc(C3CC3c3cnc(-c4ncccn4)nc3)cc(F)c2F)C1 (single isomer, unassigned) [Example 231] ?
Solution: 2.88

Problem: Fc1ccc(C2CC2c2cnc(-c3ncccn3)nc2)cc1F (single isomer, unassigned) [Example 14] ?
Solution: 3.00

Problem: Please answer likewise for Fc1cc([C@@H]2C[C@H]2c2cnc(-c3ncccn3)nc2)cc(-n2cccn2)c1F (single isomer, unassigned) [Example 254]
Solution: 1.67
